System: SW-620 colon
Test: NCI-60 one-dose screen, 48 h (100 = growth as untreated, 0 = no growth, -100 = all killed)
Details: 10 µM unless noted
About 83,000 compounds went through this panel and 20% of them were active in at least one assay; those are over-represented in the sample as a whole.
We label by threshold. Values of growth strictly beneath 20% are fulfilled. Values of 20% and up are not fulfilled.

Solved cases below.
# molecule, assignedCategory
data = [
    ("COC(=O)c1ccc(NC(=O)Nc2ccc(C(=O)OC)cc2)cc1", "not fulfilled"),
    ("Cc1nn(-c2cc(NC3CCC(O)CC3)c3c(=O)[nH]c(CCC(F)(F)F)cc3c2)c2c1C(=O)CC(C)(C)C2 (stereo not given)", "not fulfilled"),
    ("CCN1CCN(c2cc(C)nc(N(CCNc3ccnc4cc(Cl)ccc34)Cc3ccc4c(c3)OCO4)n2)CC1", "fulfilled"),
]

-- ask Is growth of `c1nc2ccc(-c3cc4ccc5[nH]ncc5c4c4c3CCCC4)cc2[nH]1` strictly below 20%?
-- reply not fulfilled

-- ask Same thing, different molecule: `CC1CCN(C(=S)SCC(=O)NC(=O)c2ccccc2)CC1`
-- reply not fulfilled

-- ask // same read-out, input: `COc1cc(/C=C2\CN(S(=O)(=O)c3ccccc3)C/C(=C\c3cc(CN4CCCCC4)c(O)c(OC)c3)C2=O)cc(CN2CCCCC2)c1O`
-- reply fulfilled

-- ask Ok, now `CSC(SC)=C(C#N)c1nc2ccccc2s1`
-- reply not fulfilled

-- ask Now consider `O=c1c2c3c(sc2n2c(-c4cc(-c5ccccc5)no4)nnc2n1Cc1ccccc1)CCCC3` and answer again.
-- reply not fulfilled

-- ask Same question for `N#C/C(=C\c1cn(Cc2ccccc2)c2ccccc12)C(=O)Nc1ncc(Cc2ccccc2Cl)s1` please.
-- reply fulfilled

-- ask Next molecule up: `O=C(O)[C@@H](Cc1ccc2ccccc2c1)NC(=O)n1c2ccccc2c2ccccc21`
-- reply not fulfilled

-- ask Moving on to the next molecule: `[2H]C([2H])([2H])Oc1ccc(F)cc1/C=C/C(=O)/C=C(O)/C=C/c1cc(F)ccc1OC([2H])([2H])[2H]`
-- reply not fulfilled
